Let's look at some molecules and their measured combination Emax.
test system: ECC10 (Gastric Carcinoma); assay: combination Emax (second highest fraction inhibited in the dose matrix, 72 h); higher = more inhibition; extreme values may be limits of the assay
Provide a numeric answer; units are not to be included.

QUERY: What combination Emax value was documented for this molecule, COc1cccc(OCCCN)c1-c1cc(Nc2cnc(C#N)cn2)n[nH]1 [Prexasertib] + Cc1cc2ncnn2cc1Nc1ncc2c(n1)n(C1CCOCC1)c(=O)n2C [AZD7648] (first compound max 1 µM, 7x7, partner max 10 µM) ?
RESULT: 0.671

QUERY: What combination Emax value was documented for this molecule, COc1cccc(OCCCN)c1-c1cc(Nc2cnc(C#N)cn2)n[nH]1 [Prexasertib] + CN(C)CCCOc1ccc(-c2ccc3ncc4c(c3c2)n(C2CCOCC2)c(=O)n4C)cn1 [AZD0156] (first compound max 1 µM, 7x7, partner max 1 µM) ?
RESULT: 0.671

QUERY: What combination Emax value was documented for this molecule, COc1nnc2ccc(N3CCC(c4ccc(OCCN5CCN(C)C(=O)[C@H]5C)cc4)CC3)nn12 [AZD5153] + C[C@@H]1COCCN1C2=NC(=NC(=C2)C3(CC3)[S@](=N)(=O)C)C4=C5C=CNC5=NC=C4 [AZD6738] (first compound max 1 µM, 7x7, partner max 10 µM) ?
RESULT: 0.916

QUERY: What combination Emax value was documented for this molecule, CN(CCO)CC[C@H](CSc1ccccc1)Nc1ccc(S(=O)(=O)NC(=O)c2ccc(N3CCC([C@@H](O)c4ccccc4-c4ccc(Cl)cc4)CC3)cc2)cc1S(=O)(=O)C(F)(F)F [AZD4320] + C[C@@H](Nc1cc(F)cc(F)c1)c1cc(C(=O)N(C)C)cc2c(=O)cc(N3CCOCC3)oc12 [AZD8186] (first compound max 1 µM, 7x7, partner max 3 µM) ?
RESULT: 1

QUERY: What combination Emax value was documented for this molecule, Cc1c2c(nn1C)CSCc1cc(n(C)n1)CSc1cc(c3ccccc3c1)OCCCc1c(C(=O)O)n(C)c3c-2c(Cl)ccc13 [AZD5991] + C=CCn1c(=O)c2cnc(Nc3ccc(N4CCN(C)CC4)cc3)nc2n1-c1cccc(C(C)(C)O)n1 [AZD1775] (first compound max 1 µM, partner max 1 µM) ?
RESULT: 0.858

* * *

Let's look at some compounds and their measured Bliss excess.
system: TT2609-C02 (Thyroid Gland Carcinoma); assay: Bliss excess, mean over the matrix (fraction); higher = more synergy;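 further: after 72 h of two-drug dosing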
Provide a numeric answer; units are not to be included.

QUERY: What Bliss excess value was documented for this compound, Cc1c2c(nn1C)CSCc1cc(n(C)n1)CSc1cc(c3ccccc3c1)OCCCc1c(C(=O)O)n(C)c3c-2c(Cl)ccc13 [AZD5991] + Cn1cnc2c(F)c(Nc3ccc(Br)cc3Cl)c(C(=O)NOCCO)cc21 [Selumetinib] (first compound max 1 µM, 7x7, partner max 3 µM) ?
RESULT: -0.0402

QUERY: What Bliss excess value was documented for this compound, CN(CCO)CC[C@H](CSc1ccccc1)Nc1ccc(S(=O)(=O)NC(=O)c2ccc(N3CCC([C@@H](O)c4ccccc4-c4ccc(Cl)cc4)CC3)cc2)cc1S(=O)(=O)C(F)(F)F [AZD4320] + C=CCn1c(=O)c2cnc(Nc3ccc(N4CCN(C)CC4)cc3)nc2n1-c1cccc(C(C)(C)O)n1 [AZD1775] (first compound max 1 µM, partner max 1 µM) ?
RESULT: -0.0244

Next:
QUERY: What Bliss excess value was documented for this compound, Cc1c2c(nn1C)CSCc1cc(n(C)n1)CSc1cc(c3ccccc3c1)OCCCc1c(C(=O)O)n(C)c3c-2c(Cl)ccc13 [AZD5991] + CCN(CCO)CCCOc1ccc2c(Nc3cc(CC(=O)Nc4cccc(F)c4)[nH]n3)ncnc2c1 [AZD2811] (first compound max 1 µM, 7x7, partner max 1 µM) ?
RESULT: 0.0119
